From: patent US20240010721A1

# Experimental System: T1, human ROR1 (hROR1) on cells (human, UniProt Q01973 30-937)
# T1 construct: whole, on cells; the cell line is named under assay; also called HEK293T-hROR1; 293T-hROR1
# T1 sequence (Q01973 30-937): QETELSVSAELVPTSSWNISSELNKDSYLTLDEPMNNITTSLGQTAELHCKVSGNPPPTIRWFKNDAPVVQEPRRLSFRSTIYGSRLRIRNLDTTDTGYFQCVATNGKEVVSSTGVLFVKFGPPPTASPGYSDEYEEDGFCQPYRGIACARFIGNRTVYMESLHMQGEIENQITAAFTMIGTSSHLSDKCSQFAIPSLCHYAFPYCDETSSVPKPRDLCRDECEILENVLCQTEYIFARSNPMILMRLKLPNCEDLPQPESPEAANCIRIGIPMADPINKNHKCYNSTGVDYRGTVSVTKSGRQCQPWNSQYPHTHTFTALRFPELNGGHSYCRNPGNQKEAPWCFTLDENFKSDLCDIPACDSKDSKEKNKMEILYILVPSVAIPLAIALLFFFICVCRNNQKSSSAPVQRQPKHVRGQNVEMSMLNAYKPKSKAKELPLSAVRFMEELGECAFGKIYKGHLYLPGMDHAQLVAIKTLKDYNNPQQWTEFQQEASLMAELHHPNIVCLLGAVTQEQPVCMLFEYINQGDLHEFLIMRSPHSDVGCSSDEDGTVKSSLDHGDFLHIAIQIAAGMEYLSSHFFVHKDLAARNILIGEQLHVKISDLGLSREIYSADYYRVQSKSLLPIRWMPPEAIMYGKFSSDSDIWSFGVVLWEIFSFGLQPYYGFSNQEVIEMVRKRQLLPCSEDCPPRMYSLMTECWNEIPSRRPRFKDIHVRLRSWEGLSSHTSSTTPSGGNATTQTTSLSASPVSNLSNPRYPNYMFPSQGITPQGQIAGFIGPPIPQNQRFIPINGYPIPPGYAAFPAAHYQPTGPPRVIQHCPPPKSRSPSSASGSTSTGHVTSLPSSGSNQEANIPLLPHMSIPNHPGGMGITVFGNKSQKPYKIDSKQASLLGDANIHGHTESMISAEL
# Assay Comment: FACS, HEK293T-hROR1 cells; note: test concentration or dose not given here
Catalogue of MFI values
State just the number; it will be interpreted in MFI.

Reference set (2 entries):
>>> test_value("PR002581 (antibody, human IgG1, kappa, V domains shown, PR001369 variant: VL S93A; hIgG1; also called anti-ROR1 1015M3-H10(L: S93A) hIgG1) VH: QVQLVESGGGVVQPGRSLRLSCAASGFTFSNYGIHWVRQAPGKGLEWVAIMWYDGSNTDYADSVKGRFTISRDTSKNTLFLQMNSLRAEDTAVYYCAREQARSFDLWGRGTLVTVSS VL: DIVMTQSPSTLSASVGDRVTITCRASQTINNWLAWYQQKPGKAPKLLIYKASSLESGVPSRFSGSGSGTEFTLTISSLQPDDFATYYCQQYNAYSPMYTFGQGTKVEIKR")
42300
>>> test_value("PR002584 (antibody, human IgG1, kappa, V domains shown, PR001369 variant: VH D54E, VL S93A; hIgG1; also called anti-ROR1 1015M3-H10(H: D54E; L: S93A) hIgG1) VH: QVQLVESGGGVVQPGRSLRLSCAASGFTFSNYGIHWVRQAPGKGLEWVAIMWYEGSNTDYADSVKGRFTISRDTSKNTLFLQMNSLRAEDTAVYYCAREQARSFDLWGRGTLVTVSS VL: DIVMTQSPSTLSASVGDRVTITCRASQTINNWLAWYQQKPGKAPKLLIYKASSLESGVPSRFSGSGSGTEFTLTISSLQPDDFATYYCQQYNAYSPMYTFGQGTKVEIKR")
36600

Given item PR002576 (antibody, human IgG1, kappa, V domains shown, PR001364 variant: VH D54E, VL S93A; hIgG1; also called anti-ROR1 1015M3-D8(H: D54E; L: S93A) hIgG1) VH: EVQLLESGGGVVQPGRSLRLSCAASGFTFSSFGMHWVRQAPGKGLEWVAVIWYEGSDKDYADSVKGRFTISRDTSKNTLYLQMNSLRAEDTAVYYCAREQARSFDLWGRGTLVTVSS VL: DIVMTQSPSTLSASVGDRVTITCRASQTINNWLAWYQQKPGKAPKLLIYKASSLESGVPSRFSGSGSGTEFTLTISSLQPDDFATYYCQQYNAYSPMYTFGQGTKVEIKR , the value recorded as its MFI is 40200
